biological target: human P2X3 receptor (Homo sapiens (Human), UniProt P56373); assay: Evaluation of human P2X3 receptor inhibitory activity (Fluo-3 calcium fluorescence, FDSS 3000, ATP stimulation); assay type: cell-based; settings: human P2X3 receptor, Test Example 1
Sequence (P56373 whole entry): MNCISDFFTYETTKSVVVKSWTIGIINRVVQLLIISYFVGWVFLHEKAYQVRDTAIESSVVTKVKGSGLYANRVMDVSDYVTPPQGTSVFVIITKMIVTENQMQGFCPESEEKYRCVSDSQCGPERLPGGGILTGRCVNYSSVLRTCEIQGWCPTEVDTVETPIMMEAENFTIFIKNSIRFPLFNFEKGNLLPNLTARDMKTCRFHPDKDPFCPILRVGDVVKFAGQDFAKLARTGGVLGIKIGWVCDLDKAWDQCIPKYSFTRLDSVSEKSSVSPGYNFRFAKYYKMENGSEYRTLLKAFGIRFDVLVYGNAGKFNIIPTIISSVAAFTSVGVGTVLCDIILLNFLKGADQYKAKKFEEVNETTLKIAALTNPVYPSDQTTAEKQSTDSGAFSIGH
Each entry below carries its recorded IC50.
Returns: string containing the number followed by the unit.

Problem: Enter IC50 (test system human P2X3 receptor (Homo sapiens (Human), UniProt P56373)) for CNC(=O)[C@H](CCO)n1c(=O)[nH]/c(=N\c2ccc(OC(C)C)c(C)c2)n(Cc2ccc(Cl)cc2)c1=O
Result: 574 nM

###

Each entry below carries its recorded log10(IC50).
target: human P2X3 receptor (Homo sapiens (Human), UniProt P56373); experiment: Evaluation of human P2X3 receptor inhibitory activity (Fluo-3 calcium fluorescence, FDSS 3000, ATP stimulation); type: cell-based; conditions: C6BU-1 cells stably expressing human P2X3 receptor, Fluo-3 fluorescence, FDSS 3000;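 further: stimulus was 50 nM ATP with fluorescence followed for 3 min, and the response per well was peak post-ATP fluorescence divided by the reading at measurement start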
Kindly note that the scale is log10 and the underlying IC50 is in nM.

Problem: Give me measured log10(IC50), please, for this compound: C[C@@H](C(=O)O)[C@H](C)n1c(=O)[nH]/c(=N\c2ccc3c(c2)OCC(=O)N3)n(Cc2ccc(Cl)cc2)c1=O
Result: 2.79

Problem: Give me measured log10(IC50), please, for this compound: COC(=O)[C@@H](C)Cn1c(=O)[nH]/c(=N\c2ccc(OC(F)F)cc2)n(Cc2ccc(Cl)cc2)c1=O
Result: 2.10

Problem: Give me measured log10(IC50), please, for this compound: CNC(=O)Cn1c(=O)[nH]/c(=N\c2ccc(Oc3ccc(O)nc3)cc2)n(Cc2ccc(Cl)cc2)c1=O
Result: 1.18

Problem: Give me measured log10(IC50), please, for this compound: O=c1[nH]/c(=N\c2ccc(OCC3CC3)cc2)n(Cc2ccc(Cl)cc2)c(=O)n1C[C@H](O)CO
Result: 1.32

Problem: Give me measured log10(IC50), please, for this compound: COC(=O)[C@@H](C)Cn1c(=O)[nH]/c(=N\c2ccc(OC3CCCC3)cc2)n(Cc2ccc(C)cc2)c1=O
Result: 1.52

Problem: Give me measured log10(IC50), please, for this compound: CCc1oc2ccc(/N=c3\[nH]c(=O)n(CCNC(=O)C(F)(F)F)c(=O)n3Cc3ccc(Cl)cc3)cc2c1C
Result: 0.90

Problem: Give me measured log10(IC50), please, for this compound: COC(=O)CCn1c(=O)[nH]/c(=N\c2cc(-c3ccncc3)c[nH]c2=O)n(Cc2ccc(C)cc2)c1=O
Result: 2.25
